# credit: patent US12029739B2

TARGET OR SYSTEM: SHP2 (full length) (Homo sapiens, UniProt Q06124)
Construct: SHP2 (full length, diluted to 100 pM final concentration in reaction buffer, BPS bioscience, US); purchased BPS bioscience, US
Sequence (Q06124 whole entry): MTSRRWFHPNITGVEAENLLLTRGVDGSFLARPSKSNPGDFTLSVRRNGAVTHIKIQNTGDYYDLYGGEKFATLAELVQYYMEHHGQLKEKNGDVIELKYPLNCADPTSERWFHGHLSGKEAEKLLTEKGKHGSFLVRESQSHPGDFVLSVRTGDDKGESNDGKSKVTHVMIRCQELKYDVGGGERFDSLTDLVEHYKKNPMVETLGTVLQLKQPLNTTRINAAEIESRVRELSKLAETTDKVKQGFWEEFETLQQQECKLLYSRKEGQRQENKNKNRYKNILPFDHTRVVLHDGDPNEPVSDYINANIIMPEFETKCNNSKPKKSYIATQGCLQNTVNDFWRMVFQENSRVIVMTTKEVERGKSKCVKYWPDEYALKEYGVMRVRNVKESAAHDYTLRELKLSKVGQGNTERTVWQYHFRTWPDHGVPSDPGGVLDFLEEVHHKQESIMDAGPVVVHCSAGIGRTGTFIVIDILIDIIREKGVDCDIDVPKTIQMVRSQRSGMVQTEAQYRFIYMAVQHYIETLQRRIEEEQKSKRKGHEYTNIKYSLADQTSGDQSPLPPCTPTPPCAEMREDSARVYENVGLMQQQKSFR
ASSAY SUMMARY: Phosphatase assay (PTPase assay) with DiFMUP substrate
Format: biochemical
EXPERIMENTAL CONDITIONS: SHP2 activated with SHP2 activating peptide; DiFMUP 80 μM, 2 hours; fluorescence; read-out: IC50 (PTPase aS say)
OBSERVABLE: IC50

Field: example entries. Status: answers known.
COCCn1cnc2ccc(Sc3cnc(N4CCC5(CC4)Cc4ncsc4C5N)cn3)c(Cl)c2c1=O (stereo in doubt) :: 3 to 100 nM
COCCn1cnc2ccc(Sc3cnc(N4CCC5(CC4)CO[C@@H](C)[C@H]5N)cn3)c(F)c2c1=O :: 3 to 100 nM
C[C@@H]1OCC2(CCN(c3cnc(Sc4ccc5ncn(CCC(F)(F)F)c(=O)c5c4Cl)cn3)CC2)[C@@H]1N :: < 3 nM

// below: IC50 requested for another compound
// query Indicate its recorded IC50; the compound in question is C[C@@H]1OCC2(CCN(c3cnc(Sc4ccc5ncn(-c6ccccc6)c(=O)c5c4Cl)cn3)CC2)[C@@H]1N
// result < 3 nM

---

Test system: phospho-ERK in MIA PaCa2 or H358 cells
ASSAY SUMMARY: Phospho-ERK assay (AlphaLisa)
Format: cell-based
EXPERIMENTAL CONDITIONS: 1.5 h, MIA PaCa2 or H358 cells, compound incubated 1.5 hours; read-out: IC50 (p-ERK)
OBSERVABLE: IC50

Field: example entries. Status: answers known.
COC(C)Cn1cnc2ccc(Sc3ncc(N4CCC5(CC4)Cc4ncsc4[C@H]5N)nc3N)c(Cl)c2c1=O (stereo partly shown) [Example 176] :: < 45 nM
Cn1c(N2CCN(C[C@@H](N)c3ccccc3)CC2)nc(N)c(Sc2cccc(Cl)c2Cl)c1=O [Example 191] :: > 1500 nM
COCCn1cnc2ccc(Sc3cnc(N4CCC5(CC4)Cc4ccc(O)cc4[C@H]5N)cn3)c(Cl)c2c1=O [Example 163] :: < 45 nM

// query Indicate its recorded IC50; the compound in question is N[C@@H]1c2cccnc2CC12CCN(c1cnc(Sc3ccc4ncn(Cc5ccccc5)c(=O)c4c3Cl)cn1)CC2 [Example 102]
// result < 45 nM

---

Items are presented alongside their recorded IC50.
System: phospho-ERK in MIA PaCa2 or H358 cells
ASSAY SUMMARY: Phospho-ERK assay (AlphaLisa)
Assay type: cell-based
EXPERIMENTAL CONDITIONS: 1.5 h, MIA PaCa2 or H358 cells, compound incubated 1.5 hours; read-out: IC50 (p-ERK)

C[C@@H]1OCC2(CCN(c3cnc(Sc4ccc5ncn(Cc6nc7ccccc7[nH]6)c(=O)c5c4Cl)cn3)CC2)[C@@H]1N [Example 37] :: < 45 nM
Cc1nc2ccc(Sc3cnc(N4CCC(C)(N)CC4)cn3)c(Cl)c2s1 [Example 24] :: > 1500 nM
CC(C)(O)Cn1cnc2ccc(Sc3cnc(N4CCC5(CC4)Cc4ncccc4[C@@H]5N)cn3)c(Cl)c2c1=O [Example 159] :: < 45 nM
C[C@@H]1OCC2(CCN(c3cnc(Sc4ccc5ncn(CC(=O)N6CCCCC6)c(=O)c5c4Cl)cn3)CC2)[C@@H]1N [Example 95] :: 45 to 1500 nM
N[C@@H]1c2scnc2CC12CCN(c1cnc(Sc3ccc4ncn(CC5CCOCC5)c(=O)c4c3Cl)cn1)CC2 [Example 149] :: < 45 nM

// query Indicate its recorded IC50; the compound in question is COCCn1cnc2ccc(Sc3cnc(N4CCC5(CC4)Cc4ncsc4[C@H]5N)c(CO)n3)c(Cl)c2c1=O [Example 169]
// result < 45 nM

// query Indicate its recorded IC50; the compound in question is C[C@@H]1OCC2(CCN(c3cnc(Sc4ccc5ncn(Cc6ccnc(Cl)c6)c(=O)c5c4Cl)cn3)CC2)[C@@H]1N [Example 60]
// result < 45 nM

---

Items are presented alongside their recorded IC50.
Test system: phospho-ERK in MIA PaCa2 or H358 cells
ASSAY SUMMARY: Phospho-ERK assay (AlphaLisa)
Assay type: cell-based
EXPERIMENTAL CONDITIONS: 1.5 h, MIA PaCa2 or H358 cells, compound incubated 1.5 hours; read-out: IC50 (p-ERK)

Field: example entries. Status: answers known.
C[C@@H]1OCC2(CCN(c3cnc(Sc4ccc5ncn(CCS(C)(=O)=O)c(=O)c5c4Cl)cn3)CC2)[C@@H]1N [Example 82] :: < 45 nM
C[C@@H]1OCC2(CCN(c3cnc(Sc4ccc5ncn(CCOC(F)(F)F)c(=O)c5c4Cl)cn3)CC2)[C@@H]1N [Example 96] :: < 45 nM
C[C@@H]1OCC2(CCN(c3cnc(Sc4ccc5ncn(CC6CCCO6)c(=O)c5c4Cl)cn3)CC2)[C@@H]1N (stereo partly drawn) [Example 62] :: < 45 nM

// query Name the value of IC50 reported for C[C@@H]1OCC2(CCN(c3cnc(Sc4ccnc(C(=O)NCc5cccnc5)c4Cl)cn3)CC2)[C@@H]1N [Example 87] when tested on phospho-ERK in MIA PaCa2 or H358 cells.
// result 45 to 1500 nM

// query Name the value of IC50 reported for Cn1cnc2ccc(Sc3cnc(N4CCC(C)(CN)CC4)cn3)c(Cl)c2c1=O [Example 15] when tested on phospho-ERK in MIA PaCa2 or H358 cells.
// result 45 to 1500 nM

// query Name the value of IC50 reported for C[C@@H]1OCC2(CCN(c3cnc(Sc4ccc5nc(Cc6ccccc6)[nH]c5c4Cl)cn3)CC2)[C@@H]1N [Example 50] when tested on phospho-ERK in MIA PaCa2 or H358 cells.
// result 45 to 1500 nM

---

System: phospho-ERK in MIA PaCa2 or H358 cells
ASSAY SUMMARY: Phospho-ERK assay (AlphaLisa)
Format: cell-based
EXPERIMENTAL CONDITIONS: 1.5 h, MIA PaCa2 or H358 cells, compound incubated 1.5 hours; read-out: IC50 (p-ERK)
pIC50: −log10 of the molar value.
OBSERVABLE: pIC50

Field: example entries. Status: answers known.
C[C@@H]1OCC2(CCN(c3cnc(Sc4ccc5ncn(CCCF)c(=O)c5c4Cl)cn3)CC2)[C@@H]1N [Example 77] :: > 7.35
C[C@@H]1OCC2(CCN(c3cnc(Sc4ccc5nc(Cc6cnccn6)[nH]c5c4Cl)cn3)CC2)[C@@H]1N [Example 136] :: > 7.35
C[C@@H]1OCC2(CCN(c3cnc(Sc4ccc5ncn(CC6CCC(=O)CC6)c(=O)c5c4Cl)cn3)CC2)[C@@H]1N [Example 121] :: > 7.35

// query Indicate its recorded pIC50; the compound in question is COCCn1cnc2ccc(Sc3cnc(N4CCC5(CC4)Cc4scnc4[C@H]5N)c(CO)n3)c(Cl)c2c1=O [Example 170]
// result > 7.35

// query Indicate its recorded pIC50; the compound in question is Cc1nc2ccc(Sc3cnc(N4CCC(C)(CN)CC4)cn3)c(Cl)c2c(=O)[nH]1 [Example 22]
// result 5.82 to 7.35

// query Indicate its recorded pIC50; the compound in question is COCCn1cnc2ccc(Sc3nc(C(C)=O)c(N4CCC5(CC4)CO[C@@H](C)[C@H]5N)nc3N)c(Cl)c2c1=O [Example 155]
// result < 5.82

// query Indicate its recorded pIC50; the compound in question is CC(C)OCCn1cnc2ccc(Sc3cnc(N4CCC5(CC4)CO[C@@H](C)[C@H]5N)cn3)c(Cl)c2c1=O [Example 116]
// result > 7.35

---

Items are presented alongside their recorded pIC50.
TARGET OR SYSTEM: SHP2 (full length) (Homo sapiens)
Construct: SHP2 (full length, diluted to 100 pM final concentration in reaction buffer, BPS bioscience, US); purchased BPS bioscience, US
ASSAY SUMMARY: Phosphatase assay (PTPase assay) with DiFMUP substrate
Format: biochemical
EXPERIMENTAL CONDITIONS: SHP2 activated with SHP2 activating peptide; DiFMUP 80 μM, 2 hours; fluorescence; read-out: IC50 (PTPase aS say)
pIC50: −log10 of the molar value.

COc1ccc(Cn2cnc3ccc(Sc4cnc(N5CCC6(CC5)CO[C@@H](C)[C@H]6N)cn4)c(Cl)c3c2=O)c(F)c1 :: > 8.52

// below: pIC50 requested for another compound
// query Indicate its recorded pIC50; the compound in question is C[C@@H]1OCC2(CCN(c3cnc(Sc4ccc5ncn(Cc6ccncc6)c(=O)c5c4Cl)cn3)CC2)[C@@H]1N
// result 7.00 to 8.52

---

Items are presented alongside their recorded pIC50.
Tested on: phospho-ERK in MIA PaCa2 or H358 cells
ASSAY SUMMARY: Phospho-ERK assay (AlphaLisa)
Format: cell-based
EXPERIMENTAL CONDITIONS: 1.5 h, MIA PaCa2 or H358 cells, compound incubated 1.5 hours; read-out: IC50 (p-ERK)
pIC50: −log10 of the molar value.

COC(=O)c1cccc(Sc2cnc(N3CCC(C)(N)CC3)cn2)c1Cl [Example 1] :: 5.82 to 7.35

// query Name the value of pIC50 reported for C[C@@H]1OCC2(CCN(c3cnc(Sc4ccc5ncn(CC6CCOC6)c(=O)c5c4Cl)cn3)CC2)[C@@H]1N (stereo partly shown) [Example 61] when tested on phospho-ERK in MIA PaCa2 or H358 cells.
// result > 7.35

// query Name the value of pIC50 reported for CC(C)(O)Cn1cnc2ccc(Sc3ncc(N4CCC5(CC4)Cc4scnc4[C@H]5N)nc3N)c(Cl)c2c1=O [Example 165] when tested on phospho-ERK in MIA PaCa2 or H358 cells.
// result > 7.35

// query Name the value of pIC50 reported for C[C@@H]1OCC2(CCN(c3cnc(Sc4ccc5nc[nH]c(=O)c5c4Cl)cn3)CC2)[C@@H]1N [Example 5] when tested on phospho-ERK in MIA PaCa2 or H358 cells.
// result 5.82 to 7.35
